Record form. Attribute: TGI. Fill in for each entry.
# Tested on: TK-10 renal
# Procedure Summary: NCI tumour cell line growth inhibition, 48 h

Task: For the compound shown here, COc1c(OC)c(OC)c2c(c1OC)c(=O)c1ccccc1n2C , give the reported TGI.
Output: > 100 µM

Task: For the compound shown here, COc1cc2cc(Oc3ccc(NC(=O)Nc4cccc(C(F)(F)F)c4)cc3)c(C)nc2cc1OC , give the reported TGI.
Output: 9.93 µM

Task: For the compound shown here, CC(=O)OCC1OC(n2c(-c3ccccc3)c(C(C)=O)c(-c3ccc(Cl)cc3)c(C#N)c2=S)C(OC(C)=O)C(OC(C)=O)C1OC(C)=O (stereo not given) , give the reported TGI.
Output: > 100 µM

Task: For the compound shown here, CC(C)CC1C(=O)NCCC(NC(=O)C(N)Cc2ccc(O)cc2)C(=O)NC(Cc2ccccc2)C(=O)NC(Cc2ccccc2)NC1=O (stereo not given) , give the reported TGI.
Output: > 100 µM

Task: For the compound shown here, Cn1nc2ccc3nccc(N4CCN(CCO)CC4)c3c2n1 , give the reported TGI.
Output: > 100 µM
